Assignment: determine reported remaining at 10 min for the given compounds.
# method summary: Metabolic stability test in plasma
# Format: in vitro ADME, human
# run parameters: unchanged form after 10 minutes at 37°C in human plasma, LC/MS; read-out: Remaining rate in human plasma (%/10min)
# value in %; strip the unit string

input: Could you tell me which remaining at 10 min is on file for COC(=O)c1ccc(OC(=O)CCCc2ccc(NC(=O)c3ccc(C)nc3-c3ccc(C(F)(F)F)cc3)c(C(=O)N(C)C)c2)cn1 [Compound 1-32] ?
output: 0

input: Could you tell me which remaining at 10 min is on file for Cc1cccc(COC(=O)c2ccc(OC(=O)CCCc3ccc(NC(=O)c4ccc(C)nc4-c4ccc(C(F)(F)F)cc4)c(C(=O)N(C)C)c3)cc2)n1 [Compound 1-100] ?
output: 12

input: Could you tell me which remaining at 10 min is on file for COC(=O)c1ccc(OC(=O)CCCc2ccc(NC(=O)c3ccccc3-c3ccc(C(F)(F)F)cc3)c(C(=O)N(C)C)c2)cc1 [Compound 1-5] ?
output: 11

input: Could you tell me which remaining at 10 min is on file for COC(=O)c1cc(Cl)c(OC(=O)CCCc2ccc(NC(=O)c3ccc(C)nc3-c3ccc(C(F)(F)F)cc3)c(C(=O)N(C)C)c2)c(OC)c1 [Compound 1-36] ?
output: 0

input: Could you tell me which remaining at 10 min is on file for COC(=O)c1ccc(OC(=O)CCCc2ccc(NC(=O)c3ccc(C)nc3-c3ccc(C(F)(F)F)cc3)c(C(=O)N(C)C)c2)c(C)c1 [Compound 1-69] ?
output: 70

input: Could you tell me which remaining at 10 min is on file for COC(=O)c1cc(Br)c(OC(=O)CCCc2ccc(NC(=O)c3ccc(C)nc3-c3ccc(C(F)(F)F)cc3)c(C(=O)N(C)C)c2)c(OC)c1 [Compound 1-50] ?
output: 0

###

# method summary: Metabolic stability test in plasma
# Format: in vitro ADME, human
# run parameters: unchanged form after 60 minutes at 37°C in human plasma, LC/MS; read-out: Remaining rate in human plasma (%/60min)
test readout: remaining at 1 h (%)
# value in %; strip the unit string

input: Could you tell me which remaining at 1 h is on file for CN(C)C(=O)c1cc(CCCC(=O)Oc2ccc(C(=O)OCCOCc3ccccc3)cc2)ccc1NC(=O)c1ccccc1-c1ccc(C(F)(F)F)cc1 [Compound 1-89] ?
output: 0

input: Could you tell me which remaining at 1 h is on file for CN(C)C(=O)c1cc(CCCC(=O)Oc2ccc(C(=O)OCc3cccs3)cc2)ccc1NC(=O)c1ccccc1-c1ccc(C(F)(F)F)cc1 [Compound 1-98] ?
output: 0

input: Could you tell me which remaining at 1 h is on file for COC(=O)c1ccc(-c2nc(C)ccc2C(=O)Nc2ccc(CCCC(=O)Oc3c(C)cc(C(=O)OC)cc3Cl)cc2C(=O)N(C)C)cc1 [Compound 4-1] ?
output: 0

###

# method summary: Metabolic stability test in plasma
# Format: in vitro ADME, human
# run parameters: unchanged form after 60 minutes at 37°C in human plasma, LC/MS; read-out: Remaining rate in human plasma (%/60min)
Assignment: determine reported remaining at 1 h for the given compounds.
# value in %; strip the unit string

input: Could you tell me which remaining at 1 h is on file for CCOC(=O)c1ccc(OC(=O)CCCc2ccc(NC(=O)c3ccc(C)nc3-c3ccc(C(F)(F)F)cc3)c(C(=O)N(C)C)c2)cc1 ?
output: 0

input: Could you tell me which remaining at 1 h is on file for CN(C)C(=O)c1cc(CCCC(=O)Oc2ccc(C(=O)OCc3ccncc3)cc2)ccc1NC(=O)c1ccccc1-c1ccc(C(F)(F)F)cc1 ?
output: 0

input: Could you tell me which remaining at 1 h is on file for COC(=O)c1ccc(OC(=O)CCCc2ccc(NC(=O)c3ccccc3-c3ccc(C(F)(F)F)cn3)c(C(=O)N(C)C)c2)cc1 ?
output: 0

input: Could you tell me which remaining at 1 h is on file for COC(=O)c1cc(Br)c(OC(=O)CCCc2ccc(NC(=O)c3ccc(C)nc3-c3ccc(C(F)(F)F)cc3)c(C(=O)N(C)C)c2)c(OC)c1 ?
output: 0

input: Could you tell me which remaining at 1 h is on file for CN(C)C(=O)c1cc(CCCC(=O)Oc2ccc(C(=O)OCCCO)cc2)ccc1NC(=O)c1ccccc1-c1ccc(C(F)(F)F)cc1 ?
output: 6

input: Could you tell me which remaining at 1 h is on file for CN(C)C(=O)c1cc(CCC(=O)Oc2ccccc2)ccc1NC(=O)c1ccccc1-c1ccc(C(F)(F)F)cc1 ?
output: 40

###

# method summary: Metabolic stability test in plasma
# Format: in vitro ADME, human
# run parameters: unchanged form after 10 minutes at 37°C in human plasma, LC/MS; read-out: Remaining rate in human plasma (%/10min)
Assignment: determine reported remaining at 10 min for the given molecules.
# value in %; strip the unit string

input: Could you tell me which remaining at 10 min is on file for COC(=O)c1ccc(OC(=O)CCCc2ccc(NC(=O)c3ccccc3-c3ccc(C(F)(F)F)cc3)c(C(=O)N(C)C)c2)cc1C(F)(F)F ?
output: 0

input: Could you tell me which remaining at 10 min is on file for COC(=O)c1cc(C)c(OC(=O)CCCc2ccc(NC(=O)c3ccc(C)nc3-c3ccc(C(F)(F)F)cc3)c(C(=O)N(C)C)c2)c(C(=O)OC)c1 ?
output: 26

input: Could you tell me which remaining at 10 min is on file for CN(C)C(=O)c1cc(CCCC(=O)Oc2ccc(C(=O)OCCOCc3ccccc3)cc2)ccc1NC(=O)c1ccccc1-c1ccc(C(F)(F)F)cc1 ?
output: 49

###

# method summary: Stability test in buffer (pH 7.4)
# Assay type: physicochemical
# run parameters: phosphate buffer/acetonitrile 7:3; 60 minutes at 37°C, 100 mM potassium phosphate buffer (pH 7.4) and acetonitrile 7:3 (v/v), LC/MS; read-out: Buf. remaining rate (%/60min)
Assignment: determine reported remaining at 1 h for the given molecules.
# value in %; strip the unit string

input: Could you tell me which remaining at 1 h is on file for COC(=O)c1cc(OC)c(OC(=O)CCCc2ccc(NC(=O)c3ccc(C)nc3-c3ccc(C(F)(F)F)cc3)c(C(=O)N(C)C)c2)c(C(F)(F)F)c1 ?
output: 97

input: Could you tell me which remaining at 1 h is on file for COC(=O)c1ccc(OC(=O)CCCc2ccc(NC(=O)c3cccnc3-c3ccc(C(F)(F)F)cc3)c(C(=O)N(C)C)c2)cc1 ?
output: 102

input: Could you tell me which remaining at 1 h is on file for COC(=O)c1ccc(OC(=O)C2CCN(c3ccc(NC(=O)c4ccccc4-c4ccc(C(F)(F)F)cc4)c(C(=O)N(C)C)c3)CC2)c(F)c1 ?
output: 97

input: Could you tell me which remaining at 1 h is on file for COC(=O)c1ccc(OC(=O)CN(C)Cc2ccc(NC(=O)c3ccccc3-c3ccc(C(F)(F)F)cc3)c(C(=O)N(C)C)c2)cc1 ?
output: 95

input: Could you tell me which remaining at 1 h is on file for COc1ccc(COC(=O)c2ccc(OC(=O)CCCc3ccc(NC(=O)c4ccccc4-c4ccc(C(F)(F)F)cc4)c(C(=O)N(C)C)c3)cc2)cc1 ?
output: 109

input: Could you tell me which remaining at 1 h is on file for CN(C)C(=O)c1cc(CC(=O)Oc2ccccc2)ccc1NC(=O)c1ccccc1-c1ccc(C(F)(F)F)cc1 ?
output: 98

input: Could you tell me which remaining at 1 h is on file for CCOc1cc(C(=O)OC)cc(Cl)c1OC(=O)CCCc1ccc(NC(=O)c2ccc(C)nc2-c2ccc(C(F)(F)F)cc2)c(C(=O)N(C)C)c1 ?
output: 102

input: Could you tell me which remaining at 1 h is on file for CN(C)C(=O)c1cc(CCCC(=O)Oc2ccc(C(=O)OCc3cccnc3)cc2)ccc1NC(=O)c1ccccc1-c1ccc(C(F)(F)F)cc1 ?
output: 99

input: Could you tell me which remaining at 1 h is on file for CCC(=O)c1ccc(OC(=O)CCCc2ccc(NC(=O)c3ccccc3-c3ccc(C(F)(F)F)cc3)c(C(=O)N(C)C)c2)cc1 ?
output: 101

input: Could you tell me which remaining at 1 h is on file for CC(C)OC(=O)c1ccc(OC(=O)CCCc2ccc(NC(=O)c3ccccc3-c3ccc(C(F)(F)F)cc3)c(C(=O)N(C)C)c2)cc1 ?
output: 98

input: Could you tell me which remaining at 1 h is on file for COC(=O)c1ccc(OC(=O)CCCc2ccc(NC(=O)c3ccccc3-c3ccc(C(F)(F)F)cc3)c(C(=O)N3CCCC3)c2)cc1 ?
output: 100

###

# method summary: Metabolic stability test in liver S9
# Assay type: in vitro ADME
# run parameters: pH 7.4; unchanged form after 10 minutes at 37°C, human liver S9 2 mg protein/mL, LC/MS; read-out: Remaining rate in human liver S9 (%/10min)
Assignment: determine reported remaining at 10 min for the given compounds.

input: Could you tell me which remaining at 10 min is on file for CN(C)C(=O)c1cc(CCCC(=O)Oc2ccc(C(=O)OCCN3CCCC3=O)cc2)ccc1NC(=O)c1ccccc1-c1ccc(C(F)(F)F)cc1 ?
output: 0%

input: Could you tell me which remaining at 10 min is on file for COc1cc(C(=O)OCC(=O)N(C)C)cc(Cl)c1OC(=O)CCCc1ccc(NC(=O)c2ccc(C)nc2-c2ccc(C(F)(F)F)cc2)c(C(=O)N(C)C)c1 ?
output: 8%

input: Could you tell me which remaining at 10 min is on file for COC(=O)c1ccc(OC(=O)C2CCN(c3ccc(NC(=O)c4ccccc4-c4ccc(C(F)(F)F)cc4)c(C(=O)N(C)C)c3)CC2)c(F)c1 ?
output: 2%

input: Could you tell me which remaining at 10 min is on file for Cc1ccc(C(=O)Nc2ccc(CCCC(=O)Oc3ccc(C(=O)OC(C)C)cc3)cc2C(=O)N(C)C)c(-c2ccc(C(F)(F)F)cc2)n1 ?
output: 4%

input: Could you tell me which remaining at 10 min is on file for CN(C)C(=O)c1cc(CCCC(=O)Oc2ccc(C(=O)OCc3ccncc3)cc2)ccc1NC(=O)c1ccccc1-c1ccc(C(F)(F)F)cc1 ?
output: 1%

input: Could you tell me which remaining at 10 min is on file for COC(=O)c1cc(C)c(OC(=O)CCCc2ccc(NC(=O)c3ccccc3-c3ccc(C(F)(F)F)cc3)c(C(=O)N(C)C)c2)c(Cl)c1 ?
output: 16%

input: Could you tell me which remaining at 10 min is on file for Cc1cccc(COC(=O)c2ccc(OC(=O)CCCc3ccc(NC(=O)c4ccccc4-c4ccc(C(F)(F)F)cc4)c(C(=O)N(C)C)c3)cc2)n1 ?
output: 3%

input: Could you tell me which remaining at 10 min is on file for Cc1noc(-c2ccc(OC(=O)CCCc3ccc(NC(=O)c4ccccc4-c4ccc(C(F)(F)F)cc4)c(C(=O)N(C)C)c3)cc2)n1 ?
output: 0%

input: Could you tell me which remaining at 10 min is on file for CN(C)C(=O)c1cc(CC(=O)Oc2ccccc2)ccc1NC(=O)c1ccccc1-c1ccc(C(F)(F)F)cc1 ?
output: 0%

input: Could you tell me which remaining at 10 min is on file for COC(=O)c1ccc(OC(=O)CCCc2ccc(NC(=O)c3ccncc3-c3ccc(C(F)(F)F)cc3)c(C(=O)N(C)C)c2)cc1 ?
output: 0%

input: Could you tell me which remaining at 10 min is on file for COC(=O)c1ccc(OC(=O)CCCc2ccc(NC(=O)c3ccccc3-c3ccc(C(F)(F)F)cc3)c(C(=O)N(C)C)c2)c(C(=O)OC)c1 ?
output: 0%

input: Could you tell me which remaining at 10 min is on file for Cc1ccc(C(=O)Nc2ccc(CCCC(=O)Oc3ccc(C(=O)OCc4cccnc4)cc3)cc2C(=O)N(C)C)c(-c2ccc(C(F)(F)F)cc2)n1 ?
output: 0%
